Molecular target: Voltage-gated inwardly rectifying potassium channel KCNH2 (Homo sapiens)
Assay: Human Ether-a-go-go-Related Gene (hERG) channel small molecule antagonists: fluorescence cell-based qHTS assay (AID 1671200); note: nearly all actives have a fitted effect of over 50% in size
Settings: hERG-U2OS cells, FluxOR thallium flux fluorescence; series mostly up to 76.8 µM
Inconclusive results are not listed. The source made the active and inactive calls. Calls come from the whole dose curve; as a rule, active = well fitted inhibition curve with a large enough effect in the repeat runs; inconclusive = weak or mixed curves; inactive = flat fitted curve, though single readings scatter.
Hi there, use one of these labels in your reply, thanks! active, inactive

Lab log entry: CC(C)C(=O)OCC(C)(C)C(O)C(C)C (stereo not drawn) — outcome as called in the assay?
inactive

Per the records of this test, what outcome belongs to CC(C)CCCCCCc1ccc(OCCOCCO)cc1 ?
inactive

GET /call?item= CCCC1CCC(=O)O1 (stereo not drawn) returns the recorded outcome of this test.
inactive

Lab log entry: CCOC(=O)C1CC(=O)C(=C(O)C2CC2)C(=O)C1 (stereo not drawn) — outcome as called in the assay?
inactive

I would be grateful if you could indicate the recorded call for Cc1ccc([N+](=O)[O-])cc1Cl .
inactive

In this assay, the call recorded for Cc1cc(NS(=O)(=O)c2ccc(N)cc2)nc(C)n1 was what?
inactive

Please indicate how the test categorized CCN[C@H]1CN(CCCOC)S(=O)(=O)c2sc(S(N)(=O)=O)cc21 .
inactive

// outcome(item) with item = COc1cc(C)ccc1C(C)C
inactive

Entry Cc1ccc(C=O)s1 : call = ?
inactive

Hi, sorry to bother you, what did the test record for CCN(CC)CCNC(=O)COc1ccc(Cl)cc1 ?
active

Per the records of this test, what outcome belongs to CS(=O)(=O)c1ccc([C@@H](O)[C@@H](CF)NC(=O)C(Cl)Cl)cc1 ?
inactive

Field: outcome | Entry: OCCN(CCO)c1ccccc1
inactive

Assay outcome for COc1ccccc1N1CCN(CCCNc2cc(=O)n(C)c(=O)n2C)CC1 : what was it?
inactive
